biological target: 5-hydroxytryptamine receptor 7 (Homo sapiens, UniProt P34969); test: Displacement of [3H]LSD from human recombinant 5HT7 receptor expressed in CHO cells
Sequence (P34969 whole entry): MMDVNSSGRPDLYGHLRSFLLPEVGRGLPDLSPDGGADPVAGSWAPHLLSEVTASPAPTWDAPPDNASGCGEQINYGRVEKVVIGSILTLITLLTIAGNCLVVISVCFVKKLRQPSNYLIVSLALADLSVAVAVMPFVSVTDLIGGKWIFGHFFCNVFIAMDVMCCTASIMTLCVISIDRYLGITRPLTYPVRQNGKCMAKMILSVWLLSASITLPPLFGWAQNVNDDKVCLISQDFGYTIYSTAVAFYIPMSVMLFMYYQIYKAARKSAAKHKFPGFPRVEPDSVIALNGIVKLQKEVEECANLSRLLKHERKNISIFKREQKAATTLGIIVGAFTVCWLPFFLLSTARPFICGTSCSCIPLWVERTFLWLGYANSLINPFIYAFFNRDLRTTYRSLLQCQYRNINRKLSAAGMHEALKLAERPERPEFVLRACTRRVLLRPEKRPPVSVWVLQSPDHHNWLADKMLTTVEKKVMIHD
Measured Attribute: pIC50
A value of pIC50 is the negative decimal logarithm of a concentration given in moles per litre.

q: Tell me the measured pIC50 of COc1ccc(S(=O)(=O)N(CCCN2CCN(c3cccc(C(F)(F)F)c3)CC2)CC2CC2)cc1 , please.
a: 6.91

q: Now consider CC(CCN1CCN(c2ccc(F)cc2)CC1)NS(=O)(=O)c1ccc2ccccc2c1 (stereo not drawn) .
a: 6.28

q: Also check O=S(=O)(c1cccc2cccnc12)N(CCCN1CCN(c2cccc(C(F)(F)F)c2)CC1)CC1CC1
a: 8.20

q: Try this compound next: COc1ccc(S(=O)(=O)N(CCCN2CCN(c3ccc(F)cc3)CC2)CC2CC2)cc1
a: 7.03

q: Same question, O=S(=O)(c1cccc2ccccc12)N(CCCN1CCN(c2ccccc2)CC1)CC1CC1 this time
a: 6.82

q: COc1ccc(S(=O)(=O)N(CCCN2CCN(c3cccc(C(F)(F)F)c3)CC2)CC2CCCCC2)cc1 ?
a: 6.17

q: Could you do the same for COc1ccc(S(=O)(=O)N(CCCN2CCN(c3ccccc3)CC2)CC2CCCCC2)cc1 , please?
a: 6.25

q: And the next one, O=S(=O)(c1cccc2cccnc12)N(CCCN1CCN(c2ccc(F)cc2)CC1)CC1CC1 ?
a: 7.45

q: Queued: O=S(=O)(c1cccc2ccccc12)N(CCCN1CCN(c2ccccc2)CC1)CC1CCCCC1
a: 6.71

q: Then this compound: COc1ccccc1N1CCN(CCCN(CC2CCCCC2)S(=O)(=O)c2ccc3ccccc3c2)CC1
a: 6.30

q: Then O=S(=O)(c1cccc2cccnc12)N(CCCN1CCN(c2ccc(Cl)c(Cl)c2)CC1)CC1CCCCC1 ?
a: 5.64

q: And what about the compound O=S(=O)(c1ccc(F)cc1)N(CCCN1CCN(c2ccccc2)CC1)CC1CCCCC1 ?
a: 6.96

q: Please do the same for O=S(=O)(c1ccc2ccccc2c1)N(CCCN1CCN(c2ccccc2)CC1)CC1CC1 as well.
a: 6.93

q: Now consider O=S(=O)(c1ccc2ccccc2c1)N(CCCN1CCN(c2ccccc2)CC1)CC1CCCCC1 .
a: 5.91

q: Ok, now COc1ccc(S(=O)(=O)N(CCCN2CCN(c3ccccc3)CC2)CC2CC2)cc1
a: 6.92

q: Now consider O=S(=O)(c1ccc(F)cc1)N(CCCN1CCN(c2ccccc2)CC1)CC1CC1 .
a: 6.83

q: Now the same for O=S(=O)(c1cccc2cccnc12)N(CCCN1CCN(c2cccc(C(F)(F)F)c2)CC1)CC1CCCCC1
a: 6.80

q: Follow-up entry: O=S(=O)(c1ccc2ccccc2c1)N(CCCN1CCN(c2ccc(F)cc2)CC1)CC1CC1
a: 7.30

q: Do the same for COc1ccc(S(=O)(=O)N(CCCN2CCN(c3ccc(F)cc3)CC2)CC2CCCCC2)cc1 please
a: 6.01

q: Moving on to the next compound: O=S(=O)(c1cccc2cccnc12)N(CCCN1CCN(c2ccc(F)cc2)CC1)CC1CCCCC1
a: 6.35

q: Another: CC(CCN1CCN(c2ccccc2)CC1)NS(=O)(=O)c1ccc2ccccc2c1 (stereo not drawn)
a: 6.18

q: Then what about the compound COc1ccccc1N1CCN(CCCN(CC2CC2)S(=O)(=O)c2ccc3ccccc3c2)CC1 ?
a: 6.73

q: And for O=[N+]([O-])c1ccc(S(=O)(=O)N(CCCN2CCN(c3ccccc3)CC2)CC2CC2)cc1 ?
a: 6.30

q: Try O=[N+]([O-])c1ccc(S(=O)(=O)N(CCCN2CCN(c3ccccc3)CC2)CC2CCCCC2)cc1 next.
a: 7.06

q: Same thing, different compound: O=S(=O)(c1ccc(C(F)(F)F)cc1)N(CCCN1CCN(c2ccccc2)CC1)CC1CC1
a: 6.48

q: Request: COc1ccccc1N1CCN(CCCN(CC2CCCCC2)S(=O)(=O)c2cccc3cccnc23)CC1
a: 7.62

q: What about O=S(=O)(c1ccc2ccccc2c1)N(CCCN1CCN(c2ccc(F)cc2)CC1)CC1CCCCC1 ?
a: 5.82

q: Quick one: COc1ccccc1N1CCN(CCCN(CC2CC2)S(=O)(=O)c2cccc3cccnc23)CC1
a: 7.91

----------
Can you tell me Ratio IC50 for the items I'm about to list?
target: Serotonin 2 receptors; 5-HT2a & 5-HT2c (Homo sapiens) (UniProt P28223+P28335); assay: Selectivity for human recombinant 5HT2A receptor over human recombinant 5HT2C receptor
Sequence (P28223 whole entry, looked up, one chain of several): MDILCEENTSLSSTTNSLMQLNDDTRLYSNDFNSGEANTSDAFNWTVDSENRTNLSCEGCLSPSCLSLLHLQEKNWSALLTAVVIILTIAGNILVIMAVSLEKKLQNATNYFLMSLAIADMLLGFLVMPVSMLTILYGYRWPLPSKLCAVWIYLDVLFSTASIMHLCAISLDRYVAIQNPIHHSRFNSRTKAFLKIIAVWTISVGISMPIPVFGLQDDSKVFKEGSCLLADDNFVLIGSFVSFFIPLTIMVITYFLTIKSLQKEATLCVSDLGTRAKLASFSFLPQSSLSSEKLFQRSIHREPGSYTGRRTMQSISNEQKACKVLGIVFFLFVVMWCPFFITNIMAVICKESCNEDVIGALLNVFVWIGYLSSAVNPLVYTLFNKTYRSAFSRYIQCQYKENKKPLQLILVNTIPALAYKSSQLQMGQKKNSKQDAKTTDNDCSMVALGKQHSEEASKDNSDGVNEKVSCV
Respond numerically, and do not add a unit to the figure.

q: Consider the molecule CC(CCN1CCN(c2ccccc2)CC1)NS(=O)(=O)c1ccc2ccccc2c1 (centres undefined) and give its measured Ratio IC50.
a: 16

q: Also CC(CCN1CCN(c2ccc(F)cc2)CC1)NS(=O)(=O)c1ccc2ccccc2c1 (centres undefined) , if possible.
a: 15

q: What do we get for O=S(=O)(c1ccc2ccccc2c1)N(CCCN1CCN(c2ccccc2)CC1)CC1CCCCC1 ?
a: 100

q: Next up: O=S(=O)(c1ccc2ccccc2c1)N(CCCN1CCN(c2ccc(F)cc2)CC1)CC1CCCCC1
a: 50

----------
Hi there, I'd appreciate the recorded log10 IC50 for every entry that follows.
Molecular target: 5-hydroxytryptamine receptor 2C (Homo sapiens, UniProt P28335)
Sequence (P28335 whole entry): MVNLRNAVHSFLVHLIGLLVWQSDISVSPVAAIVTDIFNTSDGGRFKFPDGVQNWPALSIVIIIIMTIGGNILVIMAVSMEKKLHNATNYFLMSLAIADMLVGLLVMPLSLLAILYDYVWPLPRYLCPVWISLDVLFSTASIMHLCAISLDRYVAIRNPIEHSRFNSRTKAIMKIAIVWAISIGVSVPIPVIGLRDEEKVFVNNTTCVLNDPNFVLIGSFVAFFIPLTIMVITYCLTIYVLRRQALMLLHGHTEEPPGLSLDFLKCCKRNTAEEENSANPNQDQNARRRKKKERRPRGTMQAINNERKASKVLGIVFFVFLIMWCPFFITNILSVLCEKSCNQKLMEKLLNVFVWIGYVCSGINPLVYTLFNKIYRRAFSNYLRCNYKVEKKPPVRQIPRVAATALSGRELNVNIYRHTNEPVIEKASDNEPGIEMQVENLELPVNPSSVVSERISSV
Experiment: Displacement of [3H]mesulergine from human recombinant 5HT2C receptor expressed in CHO-K1 cells
A difference of one corresponds to tenfold IC50; all values are log10 with IC50 in nM.

q: Which log10 IC50 reading was recorded for the molecule O=S(=O)(c1cccc2ccccc12)N(CCCN1CCN(c2ccccc2)CC1)CC1CCCCC1 ?
a: 1.71

q: Then COc1ccccc1N1CCN(CCCN(CC2CCCCC2)S(=O)(=O)c2ccc3ccccc3c2)CC1 ?
a: 1.85

q: // query: O=S(=O)(c1ccc2ccccc2c1)N(CCCN1CCN(c2ccccc2)CC1)CC1CCCCC1
a: 1.81

q: Param item: COc1ccc(S(=O)(=O)N(CCCN2CCN(c3cccc(C(F)(F)F)c3)CC2)CC2CCCCC2)cc1
a: 1.52

q: Please answer likewise for O=S(=O)(c1cccc2cccnc12)N(CCCN1CCN(c2ccccc2)CC1)CC1CCCCC1
a: 2.93

q: What do you get for O=S(=O)(c1cccc2cccnc12)N(CCCN1CCN(c2cccc(C(F)(F)F)c2)CC1)CC1CCCCC1 ?
a: 1.59

q: Check O=[N+]([O-])c1ccc(S(=O)(=O)N(CCCN2CCN(c3ccccc3)CC2)CC2CC2)cc1 too.
a: 3.29

q: Next up: COc1ccccc1N1CCN(CCCN(CC2CC2)S(=O)(=O)c2cccc3cccnc23)CC1
a: 3.92

q: Do the same for O=S(=O)(c1ccc(F)cc1)N(CCCN1CCN(c2ccccc2)CC1)CC1CCCCC1 please
a: 2.47

q: What do you get for O=S(=O)(c1cccc2cccnc12)N(CCCN1CCN(c2cccc(C(F)(F)F)c2)CC1)CC1CC1 ?
a: 2.84

q: Do the same for CC(CCN1CCN(c2cccc(C(F)(F)F)c2)CC1)NS(=O)(=O)c1ccc2ccccc2c1 (stereo not drawn) please
a: 2.97

q: Entry to check: COc1ccccc1N1CCN(CCC(C)NS(=O)(=O)c2ccc3ccccc3c2)CC1 (stereo not drawn)
a: 2.73

q: Next molecule up: COc1ccc(S(=O)(=O)N(CCCN2CCN(c3ccccc3OC)CC2)CC2CC2)cc1
a: 3.30

q: Moving on to COc1ccc(S(=O)(=O)N(CCCN2CCN(c3cccc(C(F)(F)F)c3)CC2)CC2CC2)cc1
a: 3.01

q: Try O=S(=O)(c1cccc2cccnc12)N(CCCN1CCN(c2ccc(F)cc2)CC1)CC1CC1 next.
a: 3.68

q: Record: COc1ccc(S(=O)(=O)N(CCCN2CCN(c3ccccc3OC)CC2)CC2CCCCC2)cc1
a: 2.30

q: Try the molecule COc1ccccc1N1CCN(CCCN(CC2CC2)S(=O)(=O)c2ccc3ccccc3c2)CC1
a: 2.74

q: Then O=S(=O)(c1cccc2cccnc12)N(CCCN1CCN(c2ccc(Cl)c(Cl)c2)CC1)CC1CCCCC1 ?
a: 1.82
